// provenance: ChEMBL document CHEMBL3507680

# protocol_summary: Human HepG2 cell viability assay in 384 well format
# Assay type: toxicity, cell-based
# Set-up: dose 125 nL, time 70.5 hour; concentration not given beside the values
# condition_info: HepG2 cells, read-out: Inhibition
# key: entry, value: cytotoxicity at 70.5 h

[
  {
    "compound": "O=S(=O)(c1cc(F)ccc1N1CC(n2cccn2)C1)C(F)(F)F",
    "quantity_unit": "%",
    "cytotoxicity at 70.5 h": -0.145
  },
  {
    "compound": "CCc1cccc(N2CCC(NC(=O)c3ccco3)CC2)c1",
    "quantity_unit": "%",
    "cytotoxicity at 70.5 h": -3.29
  },
  {
    "compound": "CC(C)c1nnc(NCc2cc3n(n2)CCNC3)s1",
    "quantity_unit": "%",
    "cytotoxicity at 70.5 h": -8.56
  },
  {
    "compound": "CN(CC1COc2ccccc2O1)C(=O)NCCCn1cncn1 (centres undefined)",
    "quantity_unit": "%",
    "cytotoxicity at 70.5 h": -4.69
  },
  {
    "compound": "Cc1nnc2n1CCN(C(=O)CN1C(=O)CSc3ccccc31)C2",
    "quantity_unit": "%",
    "cytotoxicity at 70.5 h": -3.59
  },
  {
    "compound": "Cn1cc(CC2CCN(C(=O)NCc3csc(C4CC4)n3)C2)cn1 (centres undefined)",
    "quantity_unit": "%",
    "cytotoxicity at 70.5 h": 0.703
  },
  {
    "compound": "OC1(CNc2ccc(F)cc2)CCNCC1",
    "quantity_unit": "%",
    "cytotoxicity at 70.5 h": -7.97
  },
  {
    "compound": "CN1CCCC(c2cccc(CCC(=O)NCc3ccccn3)n2)C1 (centres undefined)",
    "quantity_unit": "%",
    "cytotoxicity at 70.5 h": -7.64
  },
  {
    "compound": "Cc1cc(F)c(C(C(=O)O)N2CCN(Cc3ccccn3)CC2)cc1Cl (centres undefined)",
    "quantity_unit": "%",
    "cytotoxicity at 70.5 h": -6.6
  },
  {
    "compound": "O=C(N1CCC(Oc2ccncc2)CC1)C1(c2ccc(F)cc2)CC1",
    "quantity_unit": "%",
    "cytotoxicity at 70.5 h": -3.22
  },
  {
    "compound": "CCc1nnc2n1CCN(C(=O)CCOc1cc(C)ccc1C)C2",
    "quantity_unit": "%",
    "cytotoxicity at 70.5 h": -5.39
  },
  {
    "compound": "Clc1cccc2c3c([nH]c12)CCN(Cc1cc2n(n1)CCNC2)C3",
    "quantity_unit": "%",
    "cytotoxicity at 70.5 h": 22.8
  },
  {
    "compound": "COc1cccc(OC)c1-c1c[nH]c(C)n1",
    "quantity_unit": "%",
    "cytotoxicity at 70.5 h": -19.9
  },
  {
    "compound": "CCOC(=O)[C@@H]1[C@@H](c2ccccc2)CN2CCN(C(C)=O)C[C@H]12",
    "quantity_unit": "%",
    "cytotoxicity at 70.5 h": -4.08
  },
  {
    "compound": "COc1cc(NC(=O)c2ccc(Cl)cc2F)c(C(=O)N(C)C)cc1OC",
    "quantity_unit": "%",
    "cytotoxicity at 70.5 h": -11.5
  },
  {
    "compound": "CC(C)C(=O)NC1CCN(Cc2cccc3c2OCCO3)CC1",
    "quantity_unit": "%",
    "cytotoxicity at 70.5 h": -1.98
  },
  {
    "compound": "CCc1nc(CC(=O)N2CCCCC2Cn2cccn2)cs1 (centres undefined)",
    "quantity_unit": "%",
    "cytotoxicity at 70.5 h": 19
  },
  {
    "compound": "CC(NCc1cccnc1)c1cc2c(cc1Br)OCCO2 (centres undefined)",
    "quantity_unit": "%",
    "cytotoxicity at 70.5 h": -6.12
  },
  {
    "compound": "Cc1ccoc1C(=O)N1C[C@@H]2[C@@H](C1)OCC(=O)N2Cc1cccnc1",
    "quantity_unit": "%",
    "cytotoxicity at 70.5 h": 29.7
  },
  {
    "compound": "CCN(C)c1ccc(CNC(=O)c2cc(C(N)=O)cs2)cc1F",
    "quantity_unit": "%",
    "cytotoxicity at 70.5 h": -8.22
  },
  {
    "compound": "CC(NCCCc1cnn(C)c1)c1ccc(Cl)s1 (centres undefined)",
    "quantity_unit": "%",
    "cytotoxicity at 70.5 h": 2.71
  },
  {
    "compound": "COCCNCc1cc2c(C)cc(C)cc2n2c(=O)n(C)nc12",
    "quantity_unit": "%",
    "cytotoxicity at 70.5 h": 2.41
  },
  {
    "compound": "CC(=O)NCCNC(=O)CN1CCCCC1Cn1cncn1 (centres undefined)",
    "quantity_unit": "%",
    "cytotoxicity at 70.5 h": -8.39
  },
  {
    "compound": "COc1cccc(C(=O)N2CCCC(CNS(C)(=O)=O)C2)c1 (centres undefined)",
    "quantity_unit": "%",
    "cytotoxicity at 70.5 h": -8.76
  }
]
